Source of measurements: patent EP1247803A2

Test system: MET
Assay: MET biochemical kinase assay
Set-up: species or system human; concentration or dose not given beside the values
Description: A met biochemical kinase assay may be performed for met generally as described above for other kinases by substituting that or the other kinases. […] Incorporation of phosphate into the captured receptors is detected with an anti-phosphotyrosine antibody conjugate with horse radish peroxidase using TMB as a substrate for colorimetric detection.
ASSAY_METRIC: Met Kinase % Inhibition (%)
Entry rule: numbers only, all in %.

Under MET: report Met Kinase % Inhibition of "COc1cc(OC)c(OC)cc1C=C1C(=O)Nc2ccc(Br)c(C)c21" .
43.2

# return Met Kinase % Inhibition of "O=C1Nc2ccc(I)cc2C1=Cc1cc(Cl)ccc1O" (system: MET)
88.4

Find Met Kinase % Inhibition for "O=C1Nc2ccc(I)cc2C1=Cc1ccc[nH]1" on MET and write it down.
88.8

// fetch Met Kinase % Inhibition for "CCN(CC)c1ccc(C=C2C(=O)Nc3c(Br)cc(Br)cc32)c(O)c1" ; system: MET
69.9

Give measured Met Kinase % Inhibition for "Cn1cc(Cl)c(C=C2C(=O)Nc3c(Br)cc(Br)cc32)n1" (MET).
56.2
